system: luciferase gene expression in HEK 293 cells in response to Comp. 004; assay: Screen of riboswitch constructs with 12C6-1 variant aptamers (libraries N1-N5) against Comp. 004, luciferase in HEK 293 cells; type: cell-based, human; settings: library N5 variant aptamers (L5, X16-X21 randomized) of 12C6-1 in riboswitch constructs; in response to Comp. 004 treatment; HEK 293 cells
Category scheme (Fold (induction of luciferase gene expression)): low range (below 700 fold), mid range (700 fold to below 1000 fold), high range (1000 fold or more)

N5_7E8 (DNA CTGGGGAGTCCT; chemistry not given here); mid range
N5_7G10 (DNA CTGGGGAGTCCT; chemistry not given here); low range
N5_6E1 (CTGGGGAGTCCT; chemistry not given here); mid range

Q. Into which category would you place N5_7C1 (CTGGGGAGTCCT; chemistry not given here) ?
A. low range

Q. Given N5_1A8 (CTGGGGAGTCCT; chemistry not given here) , name the class its Fold (induction of luciferase gene expression) places it in.
A. low range

Q. Category of N5_6H10 (CTGGGGAGTCCT; chemistry not given here) :
A. high range

Q. Band for N5_1H7 (CTGGGGAGTCCT; chemistry not given here) ?
A. high range

Q. Form: Item = N5_11G11 (CTGGGGAGTCCT; chemistry not given here) ; Class = ?
A. high range

Q. Field: class (Fold (induction of luciferase gene expression)) — entry: N5_7E9 (DNA CTGGGGAGTCCT; chemistry not given here)
A. mid range

Q. Lab log: N5_1C5 (CTGGGGAGTCCT; chemistry not given here) — assign Fold (induction of luciferase gene expression) category
A. mid range

Q. Band of N5_7F5 (DNA CTGGGGAGTCCT; chemistry not given here) ?
A. high range

Q. Exercise: read the entry N5_3G12 (CTGGGGAGTCCT; chemistry not given here) and state which class it falls under.
A. mid range

====

The entries below come with measured Fold (induction of luciferase gene expression) values attached.
system: luciferase gene expression in HEK 293 cells in response to Comp. 004; assay: Screen of riboswitch constructs with 12C6-1 variant aptamers (libraries N1-N5) against Comp. 004, luciferase in HEK 293 cells; assay type: cell-based, human; settings: library N2 variant aptamers (J2-3, P3-J3-3a, J3a-2 randomized) of 12C6-1 in riboswitch constructs; in response to Comp. 004; HEK 293 cells
Reply with the number, then its unit.

N2_2F6 (DNA CTGGGGAGTCCTTCATGC; chemistry not given here); 1.0 fold
N2_2D10 (DNA CTGGGGAGTCCTTCATGC; chemistry not given here); 1.2 fold
N2_2D11 (DNA CTGGGGAGTCCTTCATGC; chemistry not given here); 1.3 fold

Q. Name the recorded Fold (induction of luciferase gene expression) of the item N2_2H8 (CTGGGGAGTCCTTCATGC; chemistry not given here) in your answer.
A. 1.4 fold

Q. Return value of Fold (induction of luciferase gene expression) for input N2_2A12 (CTGGGGAGTCCTTCATGC; chemistry not given here) , no commentary.
A. 1.1 fold

Q. Report Fold (induction of luciferase gene expression), nothing else, for this substance: N2_2F11 (DNA CTGGGGAGTCCTTCATGC; chemistry not given here)
A. 1.1 fold

====

system: luciferase gene expression in HEK 293 cells in response to Comp. 004; experiment: Screen of riboswitch constructs with 12C6-1 variant aptamers (libraries N1-N5) against Comp. 004, luciferase in HEK 293 cells; assay type: cell-based, human; settings: library N2 variant aptamers (J2-3, P3-J3-3a, J3a-2 randomized) of 12C6-1 in riboswitch constructs; in response to Comp. 004; HEK 293 cells
Value Type: Fold (induction of luciferase gene expression) (fold)
Give the value in fold but do not write fold after it.

// known answers, use as guide
N2_2G5 (DNA CTGGGGAGTCCTTCATGC; chemistry not given here); 1.0
N2_2C3 (CTGGGGAGTCCTTCATGC; chemistry not given here); 1.1
N2_2B5 (CTGGGGAGTCCTTCATGC; chemistry not given here); 1.0
N2_2E5 (DNA CTGGGGAGTCCTTCATGC; chemistry not given here); 1.2
N2_2G6 (DNA CTGGGGAGTCCTTCATGC; chemistry not given here); 1.1
N2_2F10 (DNA CTGGGGAGTCCTTCATGC; chemistry not given here); 1.1

Q. Please indicate Fold (induction of luciferase gene expression) recorded for N2_2G3 (DNA CTGGGGAGTCCTTCATGC; chemistry not given here)
A. 1.1

Q. Determine from records and report Fold (induction of luciferase gene expression) for N2_2C7 (CTGGGGAGTCCTTCATGC; chemistry not given here)
A. 0.8

Q. Provide Fold (induction of luciferase gene expression) value for the following substance: N2_2C9 (CTGGGGAGTCCTTCATGC; chemistry not given here)
A. 1.2
